Each recorded value in this set is attributed to patent US8575158B2.

# SYSTEM: hCRTH2 receptor (Homo sapiens)
# Construct: expressed in transfected cells; host or cells: HEK293
# METHOD DESCRIPTION: Radioligand displacement assay (3H-PGD2) on hCRTH2 receptor membranes
# Type: binding
# PROTOCOL CONDITIONS: antagonistic activity, 3H-PGD2 radioligand displacement, HEK293-hCRTH2 membranes
ENDPOINT: IC50 (nM)

# COMPOUND, ENDPOINT, ENDPOINT UNIT, VALUE
measured = [
    ("O=C(O)COc1ccc(Cl)cc1C1c2ccccc2CCN1C(=O)CCc1c[nH]c2ccccc12 (racemic) [Example 463]", "IC50", "nM", 12.1),
    ("O=C(O)COc1ccc(Cl)cc1[C@@H]1c2ccc(F)cc2CCN1C(=O)OCc1cncnc1 [Example 334]", "IC50", "nM", 4.95),
    ("Cc1cc(COC(=O)N2CCc3cc(F)ccc3[C@H]2c2cc(Cl)ccc2OCC(=O)O)on1 [Example 330]", "IC50", "nM", 10.6),
]

a: CCn1c(C)c(CCC(=O)N2Cc3ccccc3C2c2cc(Cl)ccc2OCC(=O)O)c2ccccc21 (racemic) [Example 508]
b: CCO[C@@H]1C[C@H]1C(=O)N1CCc2ccccc2[C@H]1c1cc(Cl)ccc1OCC(=O)O [Example 461]
I'd appreciate it if you could identify which of a and b has the greater IC50. Refer to your chosen item by its label in the answer. b

----------
# SYSTEM: hCRTH2 receptor (Homo sapiens)
# Construct: expressed in transfected cells; host or cells: HEK293
# METHOD DESCRIPTION: Radioligand displacement assay (3H-PGD2) on hCRTH2 receptor membranes
# Format: binding
# PROTOCOL CONDITIONS: antagonistic activity; 3H-PGD2 displacement on HEK293-hCRTH2 membrane fragments
ENDPOINT: IC50 (nM)

1: N#Cc1cccc(COC(=O)N2CCc3ccccc3C2c2cc(Cl)ccc2OCC(=O)O)c1 (racemic)
2: COc1ccc(OC(=O)N2CCc3ccccc3C2c2cc(F)ccc2OCC(=O)O)cc1 (racemic)
3: O=C(O)COc1ccc(Cl)cc1C1c2ccccc2CCN1C(=O)CCOc1cccc(F)c1 (racemic)
4: Cc1nnnn1-c1ccc(CC(=O)N2CCc3ccccc3C2c2cc(F)ccc2OCC(=O)O)cc1 (racemic)
List the compounds shown above again, sorted by falling IC50 values. Order the labels as requested and list them. 4, 2, 3, 1
(4: 800 nM, 2: 102 nM, 3: 17.8 nM, 1: 5.72 nM)

----------
# SYSTEM: hCRTH2 receptor (Homo sapiens, UniProt Q9Y5Y4)
# Construct: expressed in transfected cells; host or cells: HEK293
# METHOD DESCRIPTION: Radioligand displacement assay (3H-PGD2) on hCRTH2 receptor membranes
# Format: binding
# PROTOCOL CONDITIONS: antagonistic activity; 3H-PGD2 displacement on HEK293-hCRTH2 membrane fragments
ENDPOINT: IC50 (nM)

Study these solved cases before continuing.
# MOLECULE, ENDPOINT, ENDPOINT UNIT, VALUE
records = [
    ("O=C(O)COc1ccc(-c2cncnc2)cc1C1c2ccccc2CCN1C(=O)OCc1ccccc1 (racemic)", "IC50", "nM", 89.4),
    ("O=C(O)COc1ccc(Cl)cc1[C@@H]1c2cccc(F)c2CCN1C(=O)OCc1ccccc1", "IC50", "nM", 1.41),
    ("C[C@@H](Oc1ccc(F)cc1[C@@H]1c2ccccc2CCN1C(=O)OCc1ccccc1)C(=O)O", "IC50", "nM", 12.1),
    ("O=C(O)COc1ccc(Cl)cc1C1c2ccccc2CCN1C(=O)C1CC1c1ccccc1C(F)(F)F (single isomer, unassigned) [Example 155]", "IC50", "nM", 166),
    ("Cc1cccc(COC(=O)N2CCc3ccccc3C2c2cc(Cl)ccc2OCC(=O)O)c1C (racemic)", "IC50", "nM", 3.43),
]

1: O=C(O)COc1ccc(F)cc1C1c2ccccc2CCN1C(=O)CCc1ccc(Cl)cc1 (racemic)
2: Cc1nc(CC(=O)N2CCc3ccccc3C2c2cc(F)ccc2OCC(=O)O)cs1 (racemic)
3: O=C(O)COc1ccc(Cl)cc1C1c2ccccc2CCN1C(=O)CCCc1ccc(Cl)cc1 (racemic)
List the 3 entries from lowest IC50 to highest IC50 value. Please reply with the labels ordered as requested. Many thanks. 3, 1, 2

P: O=C(O)COc1ccc(Cl)cc1C1c2ccccc2CCN1C(=O)[C@@H]1C[C@H]1c1cccc(Cl)c1 (single isomer, unassigned; diastereoisomer 1) [Example 151]
Q: CCn1c(C)c(CCC(=O)N2CCc3ccccc3C2c2cc(F)ccc2OCC(=O)O)c2ccccc21 (racemic)
Sort P and Q by IC50 descending and give the first. Write down the label attached to your selection. Q

----------
# SYSTEM: hCRTH2 receptor (Homo sapiens, UniProt Q9Y5Y4)
# Construct: expressed in transfected cells; host or cells: HEK293
# Sequence (Q9Y5Y4 1-395): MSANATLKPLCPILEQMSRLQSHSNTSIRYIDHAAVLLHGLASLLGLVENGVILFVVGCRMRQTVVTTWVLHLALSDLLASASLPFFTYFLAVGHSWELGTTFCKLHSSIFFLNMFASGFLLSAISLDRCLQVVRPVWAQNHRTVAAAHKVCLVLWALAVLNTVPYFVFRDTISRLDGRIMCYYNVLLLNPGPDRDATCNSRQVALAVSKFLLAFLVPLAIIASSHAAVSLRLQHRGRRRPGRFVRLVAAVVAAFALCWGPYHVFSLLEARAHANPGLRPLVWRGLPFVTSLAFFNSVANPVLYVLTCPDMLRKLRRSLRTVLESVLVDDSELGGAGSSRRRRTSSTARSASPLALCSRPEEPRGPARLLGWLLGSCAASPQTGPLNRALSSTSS
# METHOD DESCRIPTION: Radioligand displacement assay (3H-PGD2) on hCRTH2 receptor membranes
# Type: binding
# PROTOCOL CONDITIONS: antagonistic activity; 3H-PGD2 displacement on HEK293-hCRTH2 membrane fragments
pIC50: −log10 of the molar value.
ENDPOINT: pIC50

# COMPOUND, pIC50
measured = [
    ("Cc1ccccc1COCC(=O)N1CCc2ccccc2C1c1cc(F)ccc1OCC(=O)O (racemic) [Example 192]", 7.95),
    ("O=C(O)COc1ccc(S(=O)(=O)c2ccccc2)cc1C1c2ccccc2CCN1C(=O)OCc1ccccc1 (racemic) [Example 183]", 7.19),
    ("Cc1ccc(COC(=O)N2CCc3ccccc3C2c2cc(Cl)ccc2OCC(=O)O)c(C)n1 (racemic) [Example 256]", 7.85),
    ("CC(C)(C)OC(=O)N1CCc2ccccc2[C@H]1c1cc(Cl)ccc1OCC(=O)O [Example 228]", 7.15),
    ("CCS(=O)(=O)c1cccc2c1CCN(C(=O)OCc1ccccc1)C2c1cc(F)ccc1OCC(=O)O (racemic) [Example 186]", 6.51),
    ("O=C(O)COc1ccc(F)cc1C1c2ccc(F)c(Br)c2CCN1C(=O)OCc1ccccc1 (racemic) [Example 40]", 7.64),
]

A: O=C(O)COc1ccc(F)cc1C1c2cccc(C(F)(F)F)c2CCN1C(=O)OCc1ccccc1 (racemic) [Example 12]
B: COc1ccc2[nH]cc(CCC(=O)N3CCc4ccccc4C3c3cc(Cl)ccc3OCC(=O)O)c2c1 (racemic) [Example 74]
C: O=C(O)COc1ccc(Cl)cc1C1c2ccccc2CCN1C(=O)[C@@H]1C[C@H]1c1cccc(Cl)c1 (single isomer, unassigned; diastereoisomer 2) [Example 152]
Order the items by recorded pIC50; the first position goes to the largest value. Put the labels in the requested order and list them out. B, A, C
(B: 8.85, A: 8.34, C: 7.48)

a: O=C(O)COc1ccc(F)cc1C1c2cc(Br)ccc2CCN1C(=O)OCc1ccccc1 (racemic) [Example 5]
b: Cc1ccccc1CCC(=O)N1CCc2ccccc2C1c1cc(Cl)ccc1OCC(=O)O (racemic) [Example 104]
Could you tell me which of a and b has the lower pIC50 reading? Let me know the label of the one you choose. a

----------
# SYSTEM: hCRTH2 receptor (Homo sapiens)
# Construct: expressed in transfected cells; host or cells: HEK293
# Sequence (Q9Y5Y4 1-395): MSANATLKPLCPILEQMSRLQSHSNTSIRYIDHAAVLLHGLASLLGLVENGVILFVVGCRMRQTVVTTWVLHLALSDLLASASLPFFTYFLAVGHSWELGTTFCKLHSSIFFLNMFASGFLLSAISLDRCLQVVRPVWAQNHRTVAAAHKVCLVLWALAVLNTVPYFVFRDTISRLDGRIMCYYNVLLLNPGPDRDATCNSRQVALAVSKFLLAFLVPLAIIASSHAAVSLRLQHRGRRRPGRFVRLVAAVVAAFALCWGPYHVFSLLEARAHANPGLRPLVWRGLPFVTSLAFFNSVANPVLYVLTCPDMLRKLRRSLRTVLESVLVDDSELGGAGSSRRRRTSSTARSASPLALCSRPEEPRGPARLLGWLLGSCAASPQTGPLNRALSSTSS
# METHOD DESCRIPTION: Radioligand displacement assay (3H-PGD2) on hCRTH2 receptor membranes
# Assay type: binding
# PROTOCOL CONDITIONS: antagonistic activity, 3H-PGD2 radioligand displacement, HEK293-hCRTH2 membranes
pIC50: −log10 of the molar value.
ENDPOINT: pIC50

# COMPOUND, pIC50
data = [
    ("Cc1ccc(COC(=O)N2CCc3ccccc3C2c2cc(Cl)ccc2OCC(=O)O)cc1 (racemic)", 7.73),
]

1: O=C(O)COc1ccc(Cl)cc1C1c2ccccc2CN1C(=O)CCn1ncc2ccc(F)cc21 (single isomer, unassigned) [Example 534]
2: Cc1cc(COC(=O)N2CCc3c(ccc(F)c3F)[C@H]2c2cc(Cl)ccc2OCC(=O)O)on1
3: O=C(O)COc1ccc(Cl)cc1[C@@H]1c2ccccc2CCN1C(=O)OCc1ccccc1F
4: Cn1nccc1COC(=O)N1CCc2ccccc2[C@H]1c1cc(Cl)ccc1OCC(=O)O
Ranking field: pIC50; order: falling. State the ranking by listing the labels in the requested order. 4, 3, 2, 1
(4: 9.70, 3: 8.91, 2: 8.67, 1: 7.89)
